Below is a list of entries, each paired with its recorded pIC50 value.
# Test system: acetylation of the histone H3 Lysine 14 marker in U2OS cells
# Assay Explanation: Histone H3 Lysine 14 Acetylation Biomarker Assay
# Assay type: cell-based
# Experimental Setup: Homo sapiens, serum free medium, 24 hours incubation, read-out: IC50, inhibition of histone H3 Lysine 14 acetylation
Bear in mind: pIC50 is minus log10 of a mol/L concentration; give just that figure.

Recorded pIC50, per entry:
Cpd Smiles	pIC50
COCc1cc(OC)c2c(NS(=O)(=O)c3c(OC)cc(-c4ccccc4)cc3OC)noc2c1	6.06
COc1cccc2onc(NS(=O)(=O)c3cccc4cc(C)cnc34)c12	4.90
COc1cccc(F)c1S(=O)(=O)Nc1noc2cccc(OC)c12	4.99
COc1ccc(S(=O)(=O)Nc2noc3cccc(OC)c23)c2ncccc12	4.50
COc1cccc(OC)c1S(=O)(=O)Nc1noc2cc(-c3cccc(O)c3)cc(OC)c12	6.15
CCc1ccc(OC)c(S(=O)(=O)Nc2noc3c(-c4cnn(C)c4)cccc23)c1	4.75
COc1cccc2onc(NS(=O)(=O)c3cccc4c3OCCC4)c12	4.90
COCc1cc2onc(NS(=O)(=O)c3c(OC)cccc3OC)c2c(OC)c1Cl	5.47

**Query** What value of pIC50 has been reported for the following compound? CCc1ccc(OC)c(S(=O)(=O)Nc2noc3c(-c4ccccc4)cccc23)c1
**Result** 5.51

**Query** What value of pIC50 has been reported for the following compound? COc1cccc2onc(NS(=O)(=O)c3cccc4ccc(C)nc34)c12
**Result** 4.94

**Query** What value of pIC50 has been reported for the following compound? COc1ccccc1S(=O)(=O)Nc1noc2cccc(Cl)c12
**Result** 4.58

**Query** What value of pIC50 has been reported for the following compound? COc1cncc(-c2cc(OC)c3c(NS(=O)(=O)c4c(OC)cccc4OC)noc3c2)c1
**Result** 5.46

**Query** What value of pIC50 has been reported for the following compound? COc1cccc(OC)c1S(=O)(=O)Nc1noc2cc(-c3ccccc3)cc(OC)c12
**Result** 7.17

**Query** What value of pIC50 has been reported for the following compound? COc1cc(-c2ccccc2)cc(OC)c1S(=O)(=O)Nc1noc2cccc(OC)c12
**Result** 5.04
